target: LAP-TGFβ1抗原 (coated antigen) (UniProt P01137 30-390, limits assumed); experiment: competition ELISA on coated LAP-TGFβ1; competitor biotin-labelled 28G11 at 1 μg/ml
Sequence (P01137 30-390 limits assumed): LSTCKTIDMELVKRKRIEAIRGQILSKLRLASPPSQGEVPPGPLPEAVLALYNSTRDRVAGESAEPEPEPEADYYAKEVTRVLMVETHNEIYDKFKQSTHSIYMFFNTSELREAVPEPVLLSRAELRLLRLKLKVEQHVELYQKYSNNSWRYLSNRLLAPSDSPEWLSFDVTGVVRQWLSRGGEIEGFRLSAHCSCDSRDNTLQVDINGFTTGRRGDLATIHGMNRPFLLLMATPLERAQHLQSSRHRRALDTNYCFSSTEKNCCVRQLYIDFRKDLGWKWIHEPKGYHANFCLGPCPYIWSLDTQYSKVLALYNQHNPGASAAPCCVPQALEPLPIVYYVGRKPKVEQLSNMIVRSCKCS
measurement-type: IC50 (µg/mL)
Answer format: numeric, µg/mL implied, no suffix.

* 抗LAP单克隆抗体 A-6 (全抗, mouse IgG2a / mouse Ck) (antibody, V domains shown, Full antibody made in HEK293E from vector pTSE) VH: QVKLQESGPELVKPGASVKISCKASGYTFTDYNMHWVKQSHGKSLEWIGYFYPYNGGTGYKQKFKSKATLTVDNSSSTAYMELRSLTSEDSAVYYCARNHYYYYAMDYWGQGTSVTVSS VL: DIVMTQTPSSLAVSAGEKVTMSCKSSQSLLNSRTRKNYLAWYQQKPGQSPKLLIYWASTRESGVPDRFTGSGSGTDFTLTISSVQAEDLAVYYCKQSYNLPWTFGGGTKLEIKA | 0.0557

Let's switch to this binder now.
Given the entry 抗LAP单克隆抗体 A-4 (全抗, mouse IgG2a / mouse Ck) (antibody, V domains shown, Full antibody made in HEK293E from vector pTSE) VH: EVKLQESGPGLVAPSQSLSITCTVSGFSLTTYGVSWVRQPPGKGLEWLGIIWGDGTTIYQSGLISRLSISKDDSKSQVFLKLSSLQTDDTATYYCAKHYFVMDYWGQGTSVTVSS VL: DIVLTQSPSSLAVSAGEKVTMNCKSSQSLLNSRIRKNYLAWYQQKPGQSPKLLIYWASTRESGVPDRFTGSGSGTDFTLTISSVQAEDLAVYYCKQSYNLWTFGGGTKLEIKA , report its measured IC50.
0.00805

These measurements were taken from patent CN113402607A.
